- method: Solubility (PBS)
- Format: physicochemical
- condition label: aqueous buffer; PBS; read-out: Solubility (PBS)
measured quantity: solubility (µg/mL)

1) N#C[C@@]1(c2ccc3c(N)ncnn23)O[C@H](CO)[C@@H](O)[C@H]1O	26.5
